Below, each of the molecules is paired with its reported GI50 value.
- Tested on: MDA-MB-231
- ASSAY DETAILS: NCI tumour cell line growth inhibition, 48 h
Active and inactive are the calls of the source. No stated cut-off is given here; in the data, active = GI50 up to about 1.1 µM and inactive = higher.

The examples below pair each entry with its known result.
# CCOc1ccccc1N1CSc2nnc(-c3ccccc3)n2C1 with MDA-MB-231: GI50 is > 100 µM (inactive)

# O=C(O)c1nnsc1COCc1ccccc1 with MDA-MB-231: GI50 is > 100 µM (inactive)

---
# CCOC(=O)c1nnc2c(C(=O)OCC)c3ccccc3n2c1N with MDA-MB-231: GI50 is 19.8 µM (inactive)

---

- Tested on: NCI-H522
- ASSAY DETAILS: NCI tumour cell line growth inhibition, 48 h
The source made the active and inactive calls. No stated cut-off is given here; in the data, active = GI50 up to about 1.1 µM and inactive = higher.
API: response.call in active, inactive

Solved cases (5 shown):
Can you look up the reported call for CCSCCC(N)C(=O)O (configuration not stated) for me?
inactive

Can you look up the reported call for C#CC(O)/C=C/CCCCCCC#CC/C=C\CC#CCCCCCCCCC(O)C#C (configuration not stated) for me?
active

Can you look up the reported call for COP12(OC)NC(=O)OC1(C(F)(F)F)c1ccccc1O2 (configuration not stated) for me?
inactive

Can you look up the reported call for CCn1c(=O)nc2n(-c3ccc(SC)cc3)c3ccccc3nc-2c1=O for me?
inactive

Can you look up the reported call for OC12c3ccccc3C1(N1CCOCC1)CCCCC21OCCCO1 (configuration not stated) for me?
inactive

---
Can you look up the reported call for COC1CCC2C(NS(=O)(=O)c3ccc(C)cc3)CCCC2O1.Cc1ccc(S(=O)(=O)NC(C)(C)C=O)cc1 (configuration not stated) for me?
inactive

Can you look up the reported call for CN(C)Cc1cc(C(=O)/C=C/c2ccccc2)cc(CN(C)C)c1O for me?
inactive

Can you look up the reported call for CCOC(=O)NC(=O)c1cn(CCCCCOC(=O)NCCCCCCNC(=O)OCCCCCn2cc(C(=O)NC(=O)OCC)c(=O)[nH]c2=O)c(=O)[nH]c1=O for me?
inactive

Can you look up the reported call for O=C(O)C1=C(C(=O)O)Oc2ccccc2O1 for me?
inactive

Can you look up the reported call for C/C(Cl)=N/OC(=O)Nc1ccc(F)c([N+](=O)[O-])c1 for me?
inactive

Can you look up the reported call for Cc1nc(C(N)=S)sc1C(=O)C/C(=N/N)C(=O)Nc1ccc(Cl)cc1 for me?
inactive

---

- Tested on: KM12
- ASSAY DETAILS: NCI tumour cell line growth inhibition, 48 h
Active and inactive are the calls of the source. Cut-off read from the data, not from the text of the source: active = GI50 up to about 1.1 µM and inactive = higher.
Below, each of the molecules is paired with its reported GI50 value.

For record CC(=O)OCC1OC(n2cccnc2=O)C(OC(C)=O)C1OC(C)=O (centres undefined) the listed GI50 is > 100 µM (inactive)

For record Cc1cc(-c2nc3cc(F)ccc3s2)ccc1NC(=O)[C@@H](N)CCCCN the listed GI50 is 1.3 µM (inactive)

For record Cn1c(-c2ccco2)ccc1-c1ccc(C=O)o1 the listed GI50 is > 100 µM (inactive)

For record Cn1c2c(c3ccccc31)C1CCCCCCC1C1C(=O)OC(=O)C21 (centres undefined) the listed GI50 is 38.9 µM (inactive)

For record CC(=O)N(C)c1cc(NCc2ccccc2)ccc1OCc1ccccc1 the listed GI50 is 21.3 µM (inactive)

For record CS(=O)(=O)OCCN(CCOS(C)(=O)=O)c1ccc(C=O)cc1 the listed GI50 is 10.4 µM (inactive)

Now consider a different molecule.
For record O=C1CC(NC2CC(=O)c3c(Br)sc(Br)c32)c2c(Br)sc(Br)c21 (centres undefined) the listed GI50 is 1.99 µM (inactive)
